- TARGET: Neu5Ac(a2-3)Gal(b1-4)GlcNAc6S
- TEST PROTOCOL: glycan array binding signal (z-score within array); higher = stronger binding
- CONDITION SUMMARY: glycan notation: IUPAC condensed, linker removed
The entries come from a sample that favours the strongest signals as a whole.
Examples of binders with documented glycan array binding signal (z-score) follow.
Output: the number by itself.

Some solved entries appear below for comparison.
BINDER	glycan array binding signal (z-score)
AT1G15820(NC) (Arabidopsis thaliana) (protein) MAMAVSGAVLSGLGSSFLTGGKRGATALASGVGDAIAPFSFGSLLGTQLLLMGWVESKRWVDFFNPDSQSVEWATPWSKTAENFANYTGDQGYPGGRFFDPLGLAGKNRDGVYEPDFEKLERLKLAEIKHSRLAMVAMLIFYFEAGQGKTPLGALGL	-0.18
CREG (Mus musculus), O88668 (protein) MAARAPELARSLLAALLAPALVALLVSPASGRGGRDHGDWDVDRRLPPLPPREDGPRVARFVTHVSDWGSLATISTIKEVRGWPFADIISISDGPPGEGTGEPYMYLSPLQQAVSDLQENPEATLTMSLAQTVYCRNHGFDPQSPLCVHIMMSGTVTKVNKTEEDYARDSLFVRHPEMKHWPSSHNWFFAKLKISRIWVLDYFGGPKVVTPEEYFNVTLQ	1.38
FBG3 (Homo sapiens), Q9H4M3 (protein) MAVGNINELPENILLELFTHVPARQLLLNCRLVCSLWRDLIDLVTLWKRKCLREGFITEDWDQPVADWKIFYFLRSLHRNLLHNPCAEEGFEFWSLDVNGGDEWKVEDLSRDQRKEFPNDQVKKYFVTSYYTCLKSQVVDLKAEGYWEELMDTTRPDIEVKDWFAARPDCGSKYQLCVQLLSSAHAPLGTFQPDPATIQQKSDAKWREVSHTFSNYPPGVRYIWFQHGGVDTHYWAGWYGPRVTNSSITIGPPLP	-0.064
MCL (Mus musculus), Q9Z2H6 (protein) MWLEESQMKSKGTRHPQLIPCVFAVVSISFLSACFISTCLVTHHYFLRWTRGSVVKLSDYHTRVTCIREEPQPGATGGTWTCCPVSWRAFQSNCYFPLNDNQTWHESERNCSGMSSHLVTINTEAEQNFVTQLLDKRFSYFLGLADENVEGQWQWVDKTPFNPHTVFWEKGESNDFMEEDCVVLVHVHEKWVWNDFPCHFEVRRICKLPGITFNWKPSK	-0.011
ArathEULS3 TAP (Arabidopsis thaliana) (protein) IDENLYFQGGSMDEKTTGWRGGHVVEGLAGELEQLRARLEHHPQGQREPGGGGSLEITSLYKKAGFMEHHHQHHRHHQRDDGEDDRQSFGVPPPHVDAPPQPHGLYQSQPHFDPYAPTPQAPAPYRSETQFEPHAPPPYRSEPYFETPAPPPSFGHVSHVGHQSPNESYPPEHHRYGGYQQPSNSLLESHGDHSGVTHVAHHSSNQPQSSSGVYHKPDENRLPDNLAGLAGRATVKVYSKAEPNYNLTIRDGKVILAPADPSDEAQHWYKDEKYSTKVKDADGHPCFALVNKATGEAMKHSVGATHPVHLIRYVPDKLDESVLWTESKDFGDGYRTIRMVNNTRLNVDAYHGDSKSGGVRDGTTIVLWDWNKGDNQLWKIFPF	-0.296
AT1G15820(2) (Arabidopsis thaliana), Q9LMQ2 (protein) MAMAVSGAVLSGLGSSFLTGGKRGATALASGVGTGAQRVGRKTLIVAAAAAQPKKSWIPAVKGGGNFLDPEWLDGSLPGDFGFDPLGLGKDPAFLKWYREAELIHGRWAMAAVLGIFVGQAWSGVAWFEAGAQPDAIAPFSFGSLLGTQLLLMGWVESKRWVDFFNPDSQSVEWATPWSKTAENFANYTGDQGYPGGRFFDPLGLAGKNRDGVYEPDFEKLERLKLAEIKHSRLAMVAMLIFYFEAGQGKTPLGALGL	-0.028
GALT1 615 (Arabidopsis thaliana), Q8L7F9 (protein) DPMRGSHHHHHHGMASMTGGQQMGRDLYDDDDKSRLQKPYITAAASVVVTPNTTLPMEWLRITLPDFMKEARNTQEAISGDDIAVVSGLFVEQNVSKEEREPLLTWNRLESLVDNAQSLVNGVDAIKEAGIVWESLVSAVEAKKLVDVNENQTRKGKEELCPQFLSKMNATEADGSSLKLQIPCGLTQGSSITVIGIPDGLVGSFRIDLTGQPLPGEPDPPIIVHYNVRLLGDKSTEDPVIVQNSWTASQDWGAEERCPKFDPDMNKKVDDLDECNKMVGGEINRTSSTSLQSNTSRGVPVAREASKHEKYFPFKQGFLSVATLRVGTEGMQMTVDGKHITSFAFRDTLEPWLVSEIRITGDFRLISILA	-0.078
T7P4 (Tuber borchii) (protein) GSHIGPYMSFYASSEDVRTIEEGGRTWLVGRARRADGSWQDIKLDLDNIIGNRDGHLTWGEQNFTQSASDIRFNFEGSNVPVLRAKLRNAAGGEQESDLNLGERLTNNNGDLVFN	-0.208

Consider the binder shown here: Tim-4 (Mus musculus), Q6U7R4 (protein) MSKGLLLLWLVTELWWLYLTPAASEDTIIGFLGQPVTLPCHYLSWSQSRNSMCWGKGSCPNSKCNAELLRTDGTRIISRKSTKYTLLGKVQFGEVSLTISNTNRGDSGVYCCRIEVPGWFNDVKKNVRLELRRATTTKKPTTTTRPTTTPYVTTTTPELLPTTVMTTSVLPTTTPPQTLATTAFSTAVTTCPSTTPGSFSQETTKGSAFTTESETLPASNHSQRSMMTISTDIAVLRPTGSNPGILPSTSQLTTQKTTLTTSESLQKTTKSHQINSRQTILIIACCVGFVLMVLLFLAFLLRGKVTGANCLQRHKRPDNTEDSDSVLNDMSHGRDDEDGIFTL What is its recorded glycan array binding signal (z-score)? -0.51

Consider the binder shown here: TIM1 (protein) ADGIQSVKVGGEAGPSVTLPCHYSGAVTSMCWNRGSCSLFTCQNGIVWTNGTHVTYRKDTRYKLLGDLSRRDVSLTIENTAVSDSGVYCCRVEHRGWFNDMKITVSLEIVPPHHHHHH What is its recorded glycan array binding signal (z-score)? -0.181
